assay: activity coefficient (dimensionless); of the first substance listed, at infinite dilution; xn = mol fraction of the nth substance listed; details: 312.55 K; Liquid; inverse gas chromatography; x1 = 0
Binary call on activity coefficient: Met from 9 upward, Not met beneath that.

1. CC(C)CO [2-methyl-1-propanol] + CCCCn1cc[n+](C)c1.F[B-](F)(F)F	Not met
2. CCC(C)CC [3-methylpentane] + CCCCn1cc[n+](C)c1.F[B-](F)(F)F	Met
3. CCO [ethanol] + CCCCn1cc[n+](C)c1.F[B-](F)(F)F	Not met
4. C[N+](=O)[O-] [nitromethane] + CCCCn1cc[n+](C)c1.F[B-](F)(F)F	Not met
5. CCCCCCCCC [nonane] + CCCCn1cc[n+](C)c1.F[B-](F)(F)F	Met
6. CC1CCCCC1 [methylcyclohexane] + CCCCn1cc[n+](C)c1.F[B-](F)(F)F	Met
7. c1ccncc1 [pyridine] + CCCCn1cc[n+](C)c1.F[B-](F)(F)F	Not met
8. C=O [methanal] + CCCCn1cc[n+](C)c1.F[B-](F)(F)F	Not met
